Experiment: Solubility of psilocybin in water
Reported Property: solubility

Could you share which solubility value was measured for "CN(C)CCc1c[nH]c2cccc(OP(=O)(O)O)c12" ?
~15 mg/mL
